measurement_target: ΔCTD_Reg1 (human Regnase-1 amino acids 1 to 546, FLAG tag on the N-terminal side, BirA recognition sequence … (human))
Sequence (Q5D1E8 1-546, stated change not applied): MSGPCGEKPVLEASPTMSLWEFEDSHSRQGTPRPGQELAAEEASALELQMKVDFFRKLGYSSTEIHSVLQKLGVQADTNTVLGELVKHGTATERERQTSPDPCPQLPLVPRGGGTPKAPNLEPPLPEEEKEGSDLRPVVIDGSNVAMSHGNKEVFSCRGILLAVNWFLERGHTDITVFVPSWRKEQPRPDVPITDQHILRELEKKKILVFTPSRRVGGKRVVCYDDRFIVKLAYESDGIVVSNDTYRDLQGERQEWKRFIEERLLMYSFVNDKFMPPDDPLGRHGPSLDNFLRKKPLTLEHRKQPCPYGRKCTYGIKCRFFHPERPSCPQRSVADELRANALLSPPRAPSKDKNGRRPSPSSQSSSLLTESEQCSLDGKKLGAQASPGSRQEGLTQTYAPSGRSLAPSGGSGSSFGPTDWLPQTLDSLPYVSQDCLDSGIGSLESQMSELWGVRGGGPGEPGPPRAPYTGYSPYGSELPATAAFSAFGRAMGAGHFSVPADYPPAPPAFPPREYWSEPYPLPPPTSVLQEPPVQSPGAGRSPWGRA
procedure_text: cell-based or functional assay
Positions of bridges follow the written chain, without caps; N, C: chain ends. Non-standard residues stand in square brackets, D forms with d. No end group written: not given here. NMeA = CN[C@@H](C)C(=O)O; dNMeA = CN[C@H](C)C(=O)O
readout_kind: IC50, phosphorylation by IKKβ (µM)
// return numeric value only (unit: µM, not printed)

Solved entries:
Query block: Tell me its IC50, phosphorylation by IKKβ given [dNMeA]KHASAWYRIWD (lactam N-12) [PP3] as the entry.
Result block: 8.3

Query block: Report IC50, phosphorylation by IKKβ, nothing else, for this binder: [dNMeA]SKYWNSWYNIWD (lactam N-13) [PP8]
Result block: 7.8

Query block: Annotate the binder [dNMeA]TYGHSSWYKIWD (lactam N-13) [PP9] with its measured IC50, phosphorylation by IKKβ.
Result block: 6.4

Query block: Consider the binder [NMeA]NSWYINIWGHD (lactam N-12) [PP15] . State its measured IC50, phosphorylation by IKKβ.
Result block: 31

Consider now this further binder.
Query block: Specify measured IC50, phosphorylation by IKKβ for [NMeA]VFYKIWYNWD (lactam N-11) [PP19] .
Result block: 12.6
